target: Aldose reductase (Bos taurus, UniProt P16116); construct: Aldose reductase was separated and partially purified from bovine lenses; from tissue; host or cells: bovine lens; experiment: Effect on Aldose Reductase (inhibition of enzyme activity, photometric); format: biochemical; settings: 1×10^-5 M, aldose reductase partially purified from bovine lenses; read-out: Percent Inhibition of aldose reductase
attribute.measured: inhibition at 10 µM (%)
Provide the reading as a plain figure in %.

Below, 3 compounds whose answers are already recorded.
Fill in reported inhibition at 10 µM for this entry: Cc1c(C)c2c(c(C)c1O)/C(=N/O)CC(C)(COc1ccc(CC3SC(=O)NC3=O)cc1)O2 (stereo not shown) 55.5

Fill in reported inhibition at 10 µM for this entry: Cc1c(C)c2c(c(C)c1OCC(=O)O)C(=O)CC(C)(COc1ccc(CC3SC(=O)NC3=O)cc1)O2 (stereo not shown) 79.5

Fill in reported inhibition at 10 µM for this entry: CC1(COc2ccc(CC3SC(=O)NC3=O)cc2)CCCCC1 (stereo not shown) [Cpd. A, reference compound] 16.2

We now examine a further compound.
Fill in reported inhibition at 10 µM for this entry: Cc1c(C)c2c(c(C)c1OCC(=O)O)CCC(C)(COc1ccc(CC3SC(=O)NC3=O)cc1)O2 (stereo not shown) 51.6

Reference source: patent US5104888A
